Item-by-item account of composite z-score
biological target: Albumin (Bos taurus) (UniProt P02769); experiment: bovine serum albumin binders on microarray, profiling panel, artefact control for SMM control protein annotation, biochemical, small-molecule microarray, Alexa647 label, 635/667 nm fluorescence (AID 1118); details: BSA-A647 binding, fluorescence 635 nm, higher = more signal;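 note: score merges 667 nm emission intensity and signal-to-noise per printed compound spot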
Sequence (P02769 whole entry, looked up): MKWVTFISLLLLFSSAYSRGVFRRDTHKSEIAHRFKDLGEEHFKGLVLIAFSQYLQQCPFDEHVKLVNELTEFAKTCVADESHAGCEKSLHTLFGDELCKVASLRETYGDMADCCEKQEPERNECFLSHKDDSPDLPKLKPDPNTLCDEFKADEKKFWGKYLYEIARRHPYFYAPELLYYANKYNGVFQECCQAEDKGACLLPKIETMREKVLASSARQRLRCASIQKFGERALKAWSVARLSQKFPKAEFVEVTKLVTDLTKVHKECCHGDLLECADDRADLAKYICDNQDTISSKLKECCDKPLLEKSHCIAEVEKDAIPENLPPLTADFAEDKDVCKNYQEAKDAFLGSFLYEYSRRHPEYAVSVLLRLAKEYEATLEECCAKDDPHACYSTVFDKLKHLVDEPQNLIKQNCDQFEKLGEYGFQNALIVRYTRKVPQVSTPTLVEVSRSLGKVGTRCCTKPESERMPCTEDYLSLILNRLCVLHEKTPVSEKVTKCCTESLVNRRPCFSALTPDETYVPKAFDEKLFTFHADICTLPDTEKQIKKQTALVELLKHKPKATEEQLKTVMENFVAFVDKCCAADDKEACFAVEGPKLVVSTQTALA
MEASURED METRIC: composite z-score

>  <GIVEN SMILES>
COc1ccc(CCNC(=O)[C@@]2(C)c3ccccc3C(=O)N(C(C)C)[C@H]2c2ccc(CO)cc2)cc1

>  <RECORDED MEASUREMENT>
0.252

$$$$
>  <GIVEN SMILES>
CC(C)NC(=O)[C@@]1(C)c2ccccc2C(=O)N(Cc2cc(C(F)(F)F)cc(C(F)(F)F)c2)[C@H]1c1ccc(CO)cc1

>  <RECORDED MEASUREMENT>
-0.47

$$$$
>  <GIVEN SMILES>
COc1ccc(-c2cc3c(c(-c4ccc(Oc5ccccc5)cc4)n2)[Si](C(C)C)(C(C)C)OC3)cn1

>  <RECORDED MEASUREMENT>
-0.344

$$$$
>  <GIVEN SMILES>
COc1cccc(-c2cccc(=O)o2)c1

>  <RECORDED MEASUREMENT>
-0.172

$$$$
>  <GIVEN SMILES>
COC(=O)[C@H](Cc1ccccc1)N1CC2=C[C@@H](C3CC3)n3c(=O)n(C)c(=O)n3[C@H]2[C@@H]1[C@@H](O)Cc1ccccc1

>  <RECORDED MEASUREMENT>
0.503

$$$$
>  <GIVEN SMILES>
CCOC(=O)C[C@H]1[C@H](OC(=O)c2ccc(C(=O)c3ccccc3)cc2)[C@@H](NC(=O)CC(C)C)c2cc(OCCCO)ccc2N1C(=O)c1ccc2ccccc2n1

>  <RECORDED MEASUREMENT>
0.577

$$$$
>  <GIVEN SMILES>
CC(=O)NCCCC[C@@H]1NC(=O)[C@@H]2C[C@H](C(=O)NCCCCCNC(=O)CS)[C@H](c3cccc(OCCO)c3)N2C1=O

>  <RECORDED MEASUREMENT>
-0.0839

$$$$
